Molecular target: Human immunodeficiency virus type 1 protease (Human immunodeficiency virus 1) (UniProt Q72874)
Test: Percent inhibition against Human immunodeficiency virus-1 protease at the concentration of 100 uM
Recorded inhibition by entry
Record the value in %, omitting the unit from your answer.

Molecule	inhibition (%)
CCC(C)[C@H](NC(=O)CCCCCCCCCCCNC(=O)[C@@H](NC(=O)[C@H](Cc1ccccc1)NC(C)=O)C(N)=O)C(=O)N[C@@H](Cc1ccccc1)C(N)=O (some centres undefined)	15

Kindly consider the entry below.
Form field: reported inhibition of CCC(C)[C@H](NC(=O)CCCCCCCCCCCNC(=O)[C@@H](NC(=O)[C@@H](N)Cc1ccccc1)C(N)=O)C(=O)N[C@@H](Cc1ccccc1)C(N)=O (some centres undefined) 35
